Target: GPR139 (Homo sapiens, UniProt Q6DWJ6)
Construct: host or cells: CHO-k1
Sequence (Q6DWJ6 1-353): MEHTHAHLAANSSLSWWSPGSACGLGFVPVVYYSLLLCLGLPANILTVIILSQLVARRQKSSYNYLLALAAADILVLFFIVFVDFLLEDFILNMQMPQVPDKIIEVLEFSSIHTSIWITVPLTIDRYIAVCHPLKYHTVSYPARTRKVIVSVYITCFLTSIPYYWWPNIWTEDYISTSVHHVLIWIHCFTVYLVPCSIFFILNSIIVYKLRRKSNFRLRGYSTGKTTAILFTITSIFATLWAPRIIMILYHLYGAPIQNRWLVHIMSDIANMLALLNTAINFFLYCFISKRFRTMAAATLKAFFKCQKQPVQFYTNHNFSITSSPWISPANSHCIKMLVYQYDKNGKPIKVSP
Experiment: Fluo-4 calcium mobilization assay, agonist mode, concentration-response curves in CHO-GPR139 cells
Format: cell-based
Settings: CHO-GPR139 cells; at least three independent concentration-response curves in duplicate; read-out: EC50
Listed molecules paired with reported EC50
Numbers only; they are read as nM.

// below: answered molecules
CC1(c2ccc3c(c2)OCCO3)NC(=O)N(CC(=O)c2ccc3c(c2)OCO3)C1=O (centres unmarked) [AC205] : 440
C=CCN(CC=C)C(=O)CN1C(=O)NC(C)(c2cccc3ccccc23)C1=O (centres unmarked) [AC229] : 430
CC(=O)c1c(C)[nH]c(C(=O)CN2C(=O)NC(C)(c3ccc4c(c3)OCCO4)C2=O)c1C (centres unmarked) [AC123] : 740

Entry Cc1ccc(C(C)NC(=O)NCC(=O)NCC2CC2)cc1F (centres unmarked) [AC177] ; EC50 = 90

Entry CC1(c2ccc3c(c2)OCCO3)NC(=O)N(CC(=O)N2CCc3ccccc3C2)C1=O (centres unmarked) [AC209] ; EC50 = 290

Entry CC1(c2cccc3ccccc23)NC(=O)N(CC(=O)c2ccc3c(c2)OCO3)C1=O (centres unmarked) [AC234] ; EC50 = 380

Entry CCc1cccc2c(C(=O)CN3C(=O)NC(C)(c4ccc5c(c4)OCCO5)C3=O)c[nH]c12 (centres unmarked) [AC210] ; EC50 = 630

Entry COc1cccc(C(=O)CN2C(=O)NC(C)(c3ccc(Cl)cc3)C2=O)c1 (centres unmarked) [AC225] ; EC50 = 280

Entry CC1CC(C)CN(C(=O)CN2C(=O)NC(C)(c3cccc4ccccc34)C2=O)C1 (centres unmarked) [AC186] ; EC50 = 410
